Tested on: HepG2 cells
Assay: MTT cytotoxicity assay on HepG2 cells
Settings: 10-300 μM, 24 h
Attribute measured: cytotoxicity on HepG2 cells, in words

// worked examples, cytotoxicity on HepG2 cells, in words included
Nc1c2c(nc3cc(-c4ccc(F)cc4)ccc13)CCCC2 [Compound 209] :: non-toxic
N#Cc1ccc(-c2ccc3c(N)c4c(nc3c2)CCCC4)cc1 [Compound 205] :: slight toxicity
Nc1c2c(nc3cc(-c4cncnc4)ccc13)CCCC2 [Compound 203] :: slight toxicity
CNC(=O)C1CCc2nc3cc(-c4cnn(C)c4)ccc3c(N)c2C1 (stereo not drawn) [Compound 14] :: non-toxic
Nc1c2c(nc3cc(-c4ccoc4)ccc13)CCCC2 [Compound 212] :: non-toxic
Nc1c2c(nc3cc(-c4cc[nH]n4)ccc13)CCCC2 [Compound 204] :: non-toxic
Nc1c2c(nc3cc(-c4cccnc4)ccc13)CCCC2 [Compound 214] :: non-toxic
Cn1cc(-c2ccc3c(N)c4c(nc3c2)CCCC4)cn1 [Compound 201] :: non-toxic

The compound Nc1c2c(nc3cc(-c4ccc(C(F)(F)F)cc4)ccc13)CCCC2 [Compound 211] , tested on HepG2 cells, showed cytotoxicity on HepG2 cells, in words of slight toxicity

###

# reported pIC50; entries follow
Target: GluN2B containing NMDAR (GluN1/GluN2B) in HEK-293 cells (Homo sapiens, UniProt Q05586+Q13224)
Sequence (Q13224 27-1484, species assumed, other chains not shown): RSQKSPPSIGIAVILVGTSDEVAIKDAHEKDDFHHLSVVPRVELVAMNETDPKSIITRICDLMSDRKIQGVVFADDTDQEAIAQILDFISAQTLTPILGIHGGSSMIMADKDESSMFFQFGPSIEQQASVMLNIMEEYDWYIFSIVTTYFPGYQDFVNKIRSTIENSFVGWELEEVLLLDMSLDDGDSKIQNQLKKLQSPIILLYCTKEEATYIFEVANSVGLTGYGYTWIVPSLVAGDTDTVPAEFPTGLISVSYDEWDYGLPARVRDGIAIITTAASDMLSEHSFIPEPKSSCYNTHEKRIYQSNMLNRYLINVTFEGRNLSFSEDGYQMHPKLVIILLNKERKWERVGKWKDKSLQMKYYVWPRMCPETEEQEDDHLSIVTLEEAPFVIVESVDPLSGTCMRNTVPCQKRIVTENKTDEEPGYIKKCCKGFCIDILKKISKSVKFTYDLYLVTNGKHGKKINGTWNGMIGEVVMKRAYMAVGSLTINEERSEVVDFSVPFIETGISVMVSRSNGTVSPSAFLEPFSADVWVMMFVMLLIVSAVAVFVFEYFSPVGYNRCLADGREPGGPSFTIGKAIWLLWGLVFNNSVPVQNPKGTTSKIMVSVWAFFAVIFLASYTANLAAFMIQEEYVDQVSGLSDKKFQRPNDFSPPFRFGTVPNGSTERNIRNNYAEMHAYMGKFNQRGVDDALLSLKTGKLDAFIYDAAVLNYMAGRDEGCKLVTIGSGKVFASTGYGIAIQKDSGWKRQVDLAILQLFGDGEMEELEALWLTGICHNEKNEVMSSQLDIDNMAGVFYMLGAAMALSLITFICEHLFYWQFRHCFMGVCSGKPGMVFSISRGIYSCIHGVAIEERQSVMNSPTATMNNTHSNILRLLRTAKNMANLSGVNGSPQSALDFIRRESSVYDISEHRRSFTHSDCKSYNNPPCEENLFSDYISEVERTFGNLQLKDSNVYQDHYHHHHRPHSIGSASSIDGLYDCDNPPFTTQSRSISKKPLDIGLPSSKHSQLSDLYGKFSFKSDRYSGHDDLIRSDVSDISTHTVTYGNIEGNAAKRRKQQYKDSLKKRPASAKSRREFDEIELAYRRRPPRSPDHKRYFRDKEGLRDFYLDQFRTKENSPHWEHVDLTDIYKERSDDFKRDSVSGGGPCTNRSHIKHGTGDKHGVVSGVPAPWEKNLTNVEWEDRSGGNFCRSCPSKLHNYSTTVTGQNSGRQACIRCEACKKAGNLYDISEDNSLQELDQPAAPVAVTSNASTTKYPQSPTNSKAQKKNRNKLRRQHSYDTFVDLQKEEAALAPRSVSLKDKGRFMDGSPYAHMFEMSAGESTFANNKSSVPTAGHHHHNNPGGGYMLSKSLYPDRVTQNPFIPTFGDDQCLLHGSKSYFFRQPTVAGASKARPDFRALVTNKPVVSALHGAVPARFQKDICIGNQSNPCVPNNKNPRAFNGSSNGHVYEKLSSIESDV
Assay: Cell-based NMDAR activity assay
Hey, just a heads up that pIC50 is the negative log base 10 of the concentration in molar.

Nc1c2c(nc3cc(-c4ccoc4)ccc13)CCCC2 :: 4.78
Nc1c2c(nc3cc(-c4ccccc4F)ccc13)CCCC2 :: 6.51
N#Cc1ccc(-c2ccc3c(N)c4c(nc3c2)CCCC4)cc1 :: 5.55

pIC50 reading for CSc1ccc(-c2ccc3c(N)c4c(nc3c2)CCCC4)cc1 : 6.57

pIC50 reading for Nc1c2c(nc3cc(-c4ccc(C(F)(F)F)cc4)ccc13)CCCC2 : 6.31

pIC50 reading for CCOC(=O)C1CCc2nc3cc(-c4cnn(C)c4)ccc3c(N)c2C1 (stereo not drawn) : 4.51

pIC50 reading for Nc1c2c(nc3cc(-c4ccc(OC(F)(F)F)cc4)ccc13)CCCC2 : 5.04

pIC50 reading for Nc1c2c(nc3cc(-c4ccc(F)cc4)ccc13)CCCC2 : 5.47

pIC50 reading for Nc1c2c(nc3cc(-c4cccnc4)ccc13)CCCC2 : 4.41

###

# reported IC50; entries follow
Molecular target: AChE from Electrophorus electricus (electric eel) (Electrophorus electricus, UniProt O42275)
Sequence (O42275 24-633): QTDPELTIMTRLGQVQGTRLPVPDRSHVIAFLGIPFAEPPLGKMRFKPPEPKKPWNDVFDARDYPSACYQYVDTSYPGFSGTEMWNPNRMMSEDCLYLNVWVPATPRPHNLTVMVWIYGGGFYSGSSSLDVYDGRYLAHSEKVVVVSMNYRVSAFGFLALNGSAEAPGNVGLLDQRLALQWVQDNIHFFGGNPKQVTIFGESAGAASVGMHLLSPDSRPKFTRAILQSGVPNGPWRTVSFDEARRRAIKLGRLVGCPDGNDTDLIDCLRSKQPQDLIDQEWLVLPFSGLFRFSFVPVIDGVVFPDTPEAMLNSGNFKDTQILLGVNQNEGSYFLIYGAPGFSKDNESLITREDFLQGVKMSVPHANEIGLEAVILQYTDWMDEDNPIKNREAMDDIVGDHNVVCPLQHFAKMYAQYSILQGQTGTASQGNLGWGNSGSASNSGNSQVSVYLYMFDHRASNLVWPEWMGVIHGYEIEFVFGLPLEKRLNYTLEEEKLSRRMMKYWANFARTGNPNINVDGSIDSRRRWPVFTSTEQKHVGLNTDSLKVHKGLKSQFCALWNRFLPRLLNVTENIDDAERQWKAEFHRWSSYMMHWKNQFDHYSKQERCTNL
Field format: number, assumed nM, no unit text.

Nc1c2c(nc3cc(-c4ccc(F)cc4)ccc13)CCCC2 :: 76
CCOC(=O)C1CCc2nc3cc(-c4cnn(C)c4)ccc3c(N)c2C1 (stereo not drawn) :: 107
Nc1c2c(nc3cc(-c4ccc(C(F)(F)F)cc4)ccc13)CCCC2 :: 74.6
CCOC(=O)C1CCc2nc3cc(Br)ccc3c(N)c2C1 (stereo not drawn) :: 100
CCOC(=O)C1CCc2nc3cc(-c4ccc(F)cc4)ccc3c(N)c2C1 (stereo not drawn) :: 135

IC50 reading for Nc1c2c(nc3cc(-c4cc[nH]n4)ccc13)CCCC2 : 137

IC50 reading for Nc1c2c(nc3cc(-c4ccc(OC(F)(F)F)cc4)ccc13)CCCC2 : 184

IC50 reading for Cn1cc(-c2ccc3c(N)c4c(nc3c2)CCCC4)cn1 : 40.9

IC50 reading for NNC(=O)C1CCc2nc3cc(Br)ccc3c(N)c2C1 (stereo not drawn) : 138

// provenance: paper PMC8379669
